# tgt: C-X-C chemokine receptor type 6 (Homo sapiens) (UniProt O00574)
# Sequence (O00574 whole entry, looked up): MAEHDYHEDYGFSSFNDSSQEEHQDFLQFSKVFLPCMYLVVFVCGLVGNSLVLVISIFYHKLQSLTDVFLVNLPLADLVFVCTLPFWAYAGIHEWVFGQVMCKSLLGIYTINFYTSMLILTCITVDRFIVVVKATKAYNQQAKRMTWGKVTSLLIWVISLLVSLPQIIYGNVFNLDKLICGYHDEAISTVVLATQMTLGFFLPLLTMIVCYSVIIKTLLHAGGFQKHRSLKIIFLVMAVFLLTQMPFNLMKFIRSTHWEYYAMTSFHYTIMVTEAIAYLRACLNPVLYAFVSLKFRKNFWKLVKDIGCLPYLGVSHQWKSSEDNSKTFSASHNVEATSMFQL
# assay_remarks: potency against CXCR6 with APJ panel – cell-based, beta-arrestin, DiscoveRx, uHTS hits, dose response (AID 624129)
# test_context: CXCR6 beta-arrestin (DiscoveRx) antagonist cell assay, CXCR6, dose range 1, mean IC50 across replicates
observation_type: pIC50
Scale explanation: pIC50 corresponds to minus log10 of a concentration expressed in moles per litre.

Data request: Enter measured pIC50, system C-X-C chemokine receptor type 6 (Homo sapiens) (UniProt O00574), for the compound shown: CCn1c(=O)cc(NC2=NCC(C)CN2c2cccc(Cl)c2)n(C)c1=O (stereo unspecified)
Data returned: 4.72

Data request: Enter measured pIC50, system C-X-C chemokine receptor type 6 (Homo sapiens) (UniProt O00574), for the compound shown: Cc1ccc(S(=O)(=O)c2ccc([N+](=O)[O-])o2)cc1
Data returned: 4.93

Data request: Enter measured pIC50, system C-X-C chemokine receptor type 6 (Homo sapiens) (UniProt O00574), for the compound shown: CC(=NO)C1CCC2C3CCC4=CC(=NO)CCC4(C)C3C(O)CC12C (stereo unspecified)
Data returned: 4.54

Data request: Enter measured pIC50, system C-X-C chemokine receptor type 6 (Homo sapiens) (UniProt O00574), for the compound shown: O=C(CN1CCN(S(=O)(=O)c2ccc(Br)cc2)CC1)Nc1ccc2c(c1)OCO2
Data returned: 4.68

Data request: Enter measured pIC50, system C-X-C chemokine receptor type 6 (Homo sapiens) (UniProt O00574), for the compound shown: CC(=NNc1nc2ccccc2s1)c1ncccn1
Data returned: 4.95

Data request: Enter measured pIC50, system C-X-C chemokine receptor type 6 (Homo sapiens) (UniProt O00574), for the compound shown: CN(C)/C=C/c1oc2ccc(O)cc2c1[N+](=O)[O-]
Data returned: 4.76

Data request: Enter measured pIC50, system C-X-C chemokine receptor type 6 (Homo sapiens) (UniProt O00574), for the compound shown: CN(C)c1nc(=NCc2ccco2)ss1
Data returned: 4.25

Data request: Enter measured pIC50, system C-X-C chemokine receptor type 6 (Homo sapiens) (UniProt O00574), for the compound shown: CC1(C)Cc2ccccc2C(NNC(=O)c2ccccn2)=N1
Data returned: 4.72

Data request: Enter measured pIC50, system C-X-C chemokine receptor type 6 (Homo sapiens) (UniProt O00574), for the compound shown: CC(=O)Nc1ccc(NC(=O)c2nc(S(=O)(=O)Cc3cccc(C)c3)ncc2Cl)cc1
Data returned: 5.31

* * *

# tgt: C-X-C chemokine receptor type 6 (Homo sapiens) (UniProt O00574)
# assay_remarks: potency against CXCR6 with APJ panel – cell-based, beta-arrestin, DiscoveRx, uHTS hits, dose response (AID 624129)
# test_context: CXCR6 beta-arrestin (DiscoveRx) antagonist cell assay, CXCR6, dose range 1, mean IC50 across replicates
observation_type: pIC50
Scale explanation: pIC50 corresponds to minus log10 of a concentration expressed in moles per litre.

Data request: Give pIC50 for the following compound: CC1=CC(C)(C)N2C(=O)C(=Nc3ccc(O)cc3)c3cccc1c32
Data returned: 4.24

Data request: Give pIC50 for the following compound: O=[N+]([O-])c1cc2oc3c(c2c(C=NCc2ccccc2)c1O)CCCC3
Data returned: 4.68

Data request: Give pIC50 for the following compound: O=[N+]([O-])c1cc(Cc2ccccc2)cc(C=Nc2ccc(N3CCOCC3)cc2)c1O
Data returned: 4.84

Data request: Give pIC50 for the following compound: O=C(Nc1ccc(Oc2ccccc2)cc1)c1csc([C@@H]2O[C@H](CO)[C@H](O)[C@H](O)[C@H]2O)n1
Data returned: 4.40

Data request: Give pIC50 for the following compound: CC(Oc1ccccc1)C(=O)Nc1nc(-c2ccccn2)cs1 (stereo unspecified)
Data returned: 4.84

Data request: Give pIC50 for the following compound: O=C(C#Cc1ccccc1)c1ccccc1
Data returned: 4.95

Data request: Give pIC50 for the following compound: CCOC(=O)c1cc([N+](=O)[O-])c([N+](=O)[O-])cc1NC(C)=O
Data returned: 4.82

Data request: Give pIC50 for the following compound: COCc1cc(=O)[nH]c(Nc2nc3ccc(C)cc3o2)n1
Data returned: 5.44

Data request: Give pIC50 for the following compound: N#CC(C#N)=C1C=CC=CN1/C(=C\c1ccccc1Cl)C(=O)c1ccccc1
Data returned: 5.04

Data request: Give pIC50 for the following compound: CCc1ccccc1OCC(=O)Nc1nc(-c2cccnc2)cs1
Data returned: 4.96

Data request: Give pIC50 for the following compound: CCCCC(=O)NC(=S)NNC(=O)c1ccc(OC)cc1
Data returned: 4.94
